// reported protein stability index for each item listed
B1: SOAT1 (parent)
chain: KSAAMLAVFAVSAVVHEYALAVCL

# Variants of: B1
# assayDetails: protein stability index of a GFP-peptide fusion (GPS, HEK-293T) (PSI 1-6); higher = more stable;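 note: lentivirally expressed fusions sorted by FACS into six bins by GFP to DsRed ratio, PSI derived from sequencing read proportions per bin multiplied by bin number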
# conditionSummary: c terminus: a fixed tail appended
Please respond with just the number, no unit label.

Examples from the recorded data:
> print(dat)
   variantid              readoutkind  readoutvalue
1        L6Q  protein stability index          2.68
2        S2T  protein stability index          3.26
3       A13T  protein stability index          4.82
4        V8I  protein stability index          1.62
5       L24A  protein stability index           3.7
6        A4T  protein stability index          3.43
7       V22C  protein stability index          3.03
8       A10E  protein stability index          2.05

**Q:** Answer with the recorded protein stability index of `S2E` only.
**A:** 3.57

**Q:** Tell me protein stability index reported for `F9D`
**A:** 4.42

**Q:** Give me measured protein stability index, please, for this variant: `V22H`
**A:** 2.82

**Q:** Identify measured protein stability index corresponding to `S12N`
**A:** 4.18

**Q:** Note protein stability index for the variant shown: `A7H`
**A:** 2.91

**Q:** Specify protein stability index for `M5L` and stop.
**A:** 3.74

**Q:** Item `L20C` : provide protein stability index
**A:** 2.93

**Q:** Provide protein stability index value for the following variant: `C23D`
**A:** 3.23

**Q:** Please give measured protein stability index of the following entry: `A7V`
**A:** 2.07

**Q:** Supply reported protein stability index belonging to this variant: `L20I`
**A:** 1.49

**Q:** Indicate the recorded protein stability index value for this variant: `A21D`
**A:** 3.15

**Q:** State, in one line, measured protein stability index of `A7M`
**A:** 1.54

**Q:** Report protein stability index, nothing else, for this variant: `A4H`
**A:** 3.89

**Q:** Fill in protein stability index for record `V8C`
**A:** 2.43
